This section presents compounds with their documented half-life values.
details: male, Sprague-Dawley, rat, serum, po, 12 g/kg
Enter your answer as a number in h; do not include the unit.

Summary for this compound, O=c1ccc2cc3ccoc3cc2o1 [Psoralen, psoralen] : half-life is 4.2

Summary for this compound, COc1ccc2c(c1O)-c1c(O)c(OC)cc3c1[C@H](C2)[N+](C)(C)CC3 [Magnoflorine, magnoflorine] : half-life is 13.4

Summary for this compound, CC(C)=CCc1cc(-c2coc3cc(O)ccc3c2=O)ccc1O [Neobavaisoflavone, neobavaisoflavone] : half-life is 16.2

* * *

This section presents molecules with their documented MRT inf values.
conditions: male, Sprague-Dawley, rat, serum, po, 12 g/kg
Enter your answer as a number in h; do not include the unit.

Look over these answered cases.
> print(dat)
                                   molecule  numeric.readout
1  COc1ccc2c(c1O)-c1c(O)c(OC)cc3c1[C@H](C2)[N+](C)(C)CC3 [Magnoflorine, magnoflorine]             9.43
2  CC(C)=CCc1cc(-c2coc3cc(O)ccc3c2=O)ccc1O [Neobavaisoflavone, neobavaisoflavone]             17.2

Turning to the following molecule.
Summary for this molecule, O=c1ccc2cc3ccoc3cc2o1 [Psoralen, psoralen] : MRT inf is 13.3

* * *

details: male, Sprague-Dawley, rat, in vivo, po, 12 g/kg
Measured Metric: half-life (h)
Enter your answer as a number in h; do not include the unit.

Summary for this compound, O=c1ccc2ccc3occc3c2o1 : half-life is 6.86

* * *

settings: male, Sprague-Dawley, rat, serum, po, 3 g/kg
Measured Metric: Tmax (min)
Enter your answer as a number in min; do not include the unit.

> print(dat)
                    structure.smiles.string  measurement.units  numeric.readout
1   CC(C)=CCc1cc(-c2coc3cc(O)ccc3c2=O)ccc1O                min               30
2  COc1ccc2c(c1O)-c1c(O)c(OC)cc3c1[C@H](C2)[N+](C)(C)CC3                min               30

Turning to the following molecule.
Summary for this molecule, O=c1ccc2cc3ccoc3cc2o1 : Tmax is 270

* * *

details: male, Sprague-Dawley, rat, in vivo, po, 3 g/kg
Measured Metric: Tmax (h)
Enter your answer as a number in h; do not include the unit.

Summary for this compound, O=c1ccc2ccc3occc3c2o1 : Tmax is 3.5

* * *

This section presents molecules with their documented AUC(0-inf) values.
settings: male, Sprague-Dawley, rat, serum, po, 3 g/kg
Enter your answer as a number in ng·h/mL; do not include the unit.

> print(dat)
                   structure.smiles.string  numeric.readout
1  CC(C)=CCc1cc(-c2coc3cc(O)ccc3c2=O)ccc1O             7.24

Summary for this molecule, O=c1ccc2cc3ccoc3cc2o1 : AUC(0-inf) is 2810

Summary for this molecule, COc1ccc2c(c1O)-c1c(O)c(OC)cc3c1[C@H](C2)[N+](C)(C)CC3 : AUC(0-inf) is 320

* * *

conditions: male, Sprague-Dawley, rat, serum, po, 12 g/kg
Measured Metric: AUC(0-t) (ng·h/mL)
Enter your answer as a number in ng·h/mL; do not include the unit.

Look over these answered cases.
> print(dat)
                   structure.smiles.string  numeric.readout
1  CC(C)=CCc1cc(-c2coc3cc(O)ccc3c2=O)ccc1O              110
2                    O=c1ccc2cc3ccoc3cc2o1            28300

Turning to the following compound.
Summary for this compound, COc1ccc2c(c1O)-c1c(O)c(OC)cc3c1[C@H](C2)[N+](C)(C)CC3 : AUC(0-t) is 3330

* * *

conditions: male, Sprague-Dawley, rat, in vivo, po, 6 g/kg
Measured Metric: Cmax (ng/mL)
Enter your answer as a number in ng/mL; do not include the unit.

Summary for this molecule, O=c1ccc2ccc3occc3c2o1 : Cmax is 1140

* * *

details: male, Sprague-Dawley, rat, in vivo, po, 3 g/kg
Measured Metric: Cmax (ng/mL)
Enter your answer as a number in ng/mL; do not include the unit.

Summary for this compound, O=c1ccc2ccc3occc3c2o1 [Isopsoralen, isopsoralen] : Cmax is 270

* * *

settings: male, Sprague-Dawley, rat, in vivo, po, 12 g/kg
Measured Metric: Cmax

Summary for this compound, O=c1ccc2ccc3occc3c2o1 : Cmax is 1240 ng/mL

* * *

settings: male, Sprague-Dawley, rat, in vivo, po, 12 g/kg
Measured Metric: Tmax (h)
Enter your answer as a number in h; do not include the unit.

Summary for this compound, O=c1ccc2ccc3occc3c2o1 [Isopsoralen, isopsoralen] : Tmax is 1.67

* * *

This section presents compounds with their documented MRT inf values.
conditions: male, Sprague-Dawley, rat, serum, po, 6 g/kg
Enter your answer as a number in h; do not include the unit.

> print(dat)
                   structure.smiles.string  numeric.readout
1  CC(C)=CCc1cc(-c2coc3cc(O)ccc3c2=O)ccc1O             19.3
2                    O=c1ccc2cc3ccoc3cc2o1             12.2

Turning to the following compound.
Summary for this compound, COc1ccc2c(c1O)-c1c(O)c(OC)cc3c1[C@H](C2)[N+](C)(C)CC3 : MRT inf is 44.4

* * *

conditions: male, Sprague-Dawley, rat, in vivo, po, 6 g/kg
Measured Metric: MRT last (h)
Enter your answer as a number in h; do not include the unit.

Summary for this compound, O=c1ccc2ccc3occc3c2o1 [Isopsoralen, isopsoralen] : MRT last is 11.7

* * *

conditions: male, Sprague-Dawley, rat, in vivo, po, 6 g/kg
Measured Metric: Tmax (h)
Enter your answer as a number in h; do not include the unit.

Summary for this compound, O=c1ccc2ccc3occc3c2o1 : Tmax is 3.67

* * *

assay: in vivo; conditions: male, Sprague-Dawley, rat, po, 12 g/kg
Measured Metric: half-life (h)
Enter your answer as a number in h; do not include the unit.

Summary for this compound, C=C[C@H]1[C@H](O[C@@H]2O[C@H](CO)[C@@H](O)[C@H](O)[C@H]2O)OC=C2C(=O)OCC[C@H]21 [Sweroside, sweroside] : half-life is 23.7

* * *

conditions: male, Sprague-Dawley, rat, in vivo, po, 12 g/kg
Measured Metric: MRT inf (h)
Enter your answer as a number in h; do not include the unit.

Summary for this compound, O=c1ccc2ccc3occc3c2o1 : MRT inf is 14.2

* * *

conditions: male, Sprague-Dawley, rat, serum, po, 6 g/kg
Measured Metric: Tmax (min)
Enter your answer as a number in min; do not include the unit.

Look over these answered cases.
> print(dat)
                                   compound  numeric.readout
1  O=c1ccc2cc3ccoc3cc2o1 [Psoralen, psoralen]              175
2  COc1ccc2c(c1O)-c1c(O)c(OC)cc3c1[C@H](C2)[N+](C)(C)CC3 [Magnoflorine, magnoflorine]             40.2

Summary for this compound, CC(C)=CCc1cc(-c2coc3cc(O)ccc3c2=O)ccc1O [Neobavaisoflavone, neobavaisoflavone] : Tmax is 34.8

* * *

details: male, Sprague-Dawley, rat, serum, po, 3 g/kg
Measured Metric: half-life (h)
Enter your answer as a number in h; do not include the unit.

Summary for this compound, O=c1ccc2cc3ccoc3cc2o1 : half-life is 6.39

Summary for this compound, CC(C)=CCc1cc(-c2coc3cc(O)ccc3c2=O)ccc1O : half-life is 6.28

Summary for this compound, COc1ccc2c(c1O)-c1c(O)c(OC)cc3c1[C@H](C2)[N+](C)(C)CC3 : half-life is 20

* * *

settings: male, Sprague-Dawley, rat, serum, po, 6 g/kg
Measured Metric: MRT last

> print(dat)
                    structure.smiles.string  result
1  COc1ccc2c(c1O)-c1c(O)c(OC)cc3c1[C@H](C2)[N+](C)(C)CC3  17.3 h

Summary for this compound, O=c1ccc2cc3ccoc3cc2o1 : MRT last is 11.8 h

Summary for this compound, CC(C)=CCc1cc(-c2coc3cc(O)ccc3c2=O)ccc1O : MRT last is 9.13 h

* * *

assay: in vivo; conditions: male, Sprague-Dawley, rat, po, 6 g/kg
Measured Metric: MRT inf

Summary for this compound, C=C[C@H]1[C@H](O[C@@H]2O[C@H](CO)[C@@H](O)[C@H](O)[C@H]2O)OC=C2C(=O)OCC[C@H]21 [Sweroside, sweroside] : MRT inf is 16.7 h

* * *

assay: in vivo; details: male, Sprague-Dawley, rat, po, 3 g/kg
Measured Metric: Tmax (h)
Enter your answer as a number in h; do not include the unit.

Summary for this compound, C=C[C@H]1[C@H](O[C@@H]2O[C@H](CO)[C@@H](O)[C@H](O)[C@H]2O)OC=C2C(=O)OCC[C@H]21 [Sweroside, sweroside] : Tmax is 1.17
